# pIC50 per entry
system.tested: Amine oxidase [flavin-containing] B (Homo sapiens)
Sequence (P27338 whole entry): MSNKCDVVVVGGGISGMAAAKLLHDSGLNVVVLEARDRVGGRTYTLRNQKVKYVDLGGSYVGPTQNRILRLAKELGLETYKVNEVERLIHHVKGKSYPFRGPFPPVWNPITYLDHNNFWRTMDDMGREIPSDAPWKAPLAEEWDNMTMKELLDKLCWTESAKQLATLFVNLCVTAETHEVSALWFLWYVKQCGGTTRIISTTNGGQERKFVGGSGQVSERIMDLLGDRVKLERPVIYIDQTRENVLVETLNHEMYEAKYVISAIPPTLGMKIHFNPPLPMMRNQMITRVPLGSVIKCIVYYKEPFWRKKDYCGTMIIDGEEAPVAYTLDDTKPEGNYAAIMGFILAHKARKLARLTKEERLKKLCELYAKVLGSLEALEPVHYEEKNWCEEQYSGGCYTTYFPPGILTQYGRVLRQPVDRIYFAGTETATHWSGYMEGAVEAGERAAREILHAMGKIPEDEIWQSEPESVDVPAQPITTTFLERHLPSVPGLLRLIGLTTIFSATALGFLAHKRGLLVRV
protocol.description: Inhibition of human recombinant MAOB using kynuramine as substrate incubated for 10 mins by UPLC-ESI-MS/MS analysis
pIC50: −log10 of the molar value.

Guide cases for pIC50, answers given:
# compound, pIC50
data = [
    ("COc1ccc(C)c2c1C(=O)O[C@@H](C)C2", "< 4.30"),
    ("Cc1cc(N)c(O)c2c1C[C@@H](C)OC2=O", "< 4.30"),
    ("Cc1ccc(O)c2c1C[C@H](C)OC2=O", 4.39),
    ("Cc1cc(Br)c(O)c2c1C[C@@H](C)OC2=O", "< 4.30"),
]

Task: Name the value of pIC50 reported for `CCCc1cc(C)c2c(c1O)C(=O)O[C@H](C)C2` when tested on Amine oxidase [flavin-containing] B (Homo sapiens).
Output: < 4.30

Task: Name the value of pIC50 reported for `C[C@H]1Cc2cccc(O)c2C(=O)O1` when tested on Amine oxidase [flavin-containing] B (Homo sapiens).
Output: 4.62

Task: Name the value of pIC50 reported for `Cc1cc(Cl)c(O)c2c1C[C@@H](C)OC2=O` when tested on Amine oxidase [flavin-containing] B (Homo sapiens).
Output: < 4.30

Task: Name the value of pIC50 reported for `COc1ccc(NCc2cc(C)c3c(c2O)C(=O)O[C@H](C)C3)cc1` when tested on Amine oxidase [flavin-containing] B (Homo sapiens).
Output: < 4.30

Task: Name the value of pIC50 reported for `CC[C@@H]1Cc2c(C)cc(-c3ccc(N)cc3)c(O)c2C(=O)O1` when tested on Amine oxidase [flavin-containing] B (Homo sapiens).
Output: < 4.30

Task: Name the value of pIC50 reported for `C[C@@H]1Cc2c(CO)ccc(O)c2C(=O)O1` when tested on Amine oxidase [flavin-containing] B (Homo sapiens).
Output: < 4.30

Task: Name the value of pIC50 reported for `Cc1cc(C(=O)N2CCN(C)CC2)c(O)c2c1C[C@@H](C)OC2=O` when tested on Amine oxidase [flavin-containing] B (Homo sapiens).
Output: < 4.30

Task: Name the value of pIC50 reported for `COc1ccc(C)c2c1C(=O)O[C@H](C)C2` when tested on Amine oxidase [flavin-containing] B (Homo sapiens).
Output: < 4.30

Task: Name the value of pIC50 reported for `Cc1cc(I)c(O)c2c1C[C@@H](C)OC2=O` when tested on Amine oxidase [flavin-containing] B (Homo sapiens).
Output: < 4.30

----------
system.tested: Amine oxidase [flavin-containing] B (Homo sapiens, UniProt P27338)
Sequence (P27338 whole entry): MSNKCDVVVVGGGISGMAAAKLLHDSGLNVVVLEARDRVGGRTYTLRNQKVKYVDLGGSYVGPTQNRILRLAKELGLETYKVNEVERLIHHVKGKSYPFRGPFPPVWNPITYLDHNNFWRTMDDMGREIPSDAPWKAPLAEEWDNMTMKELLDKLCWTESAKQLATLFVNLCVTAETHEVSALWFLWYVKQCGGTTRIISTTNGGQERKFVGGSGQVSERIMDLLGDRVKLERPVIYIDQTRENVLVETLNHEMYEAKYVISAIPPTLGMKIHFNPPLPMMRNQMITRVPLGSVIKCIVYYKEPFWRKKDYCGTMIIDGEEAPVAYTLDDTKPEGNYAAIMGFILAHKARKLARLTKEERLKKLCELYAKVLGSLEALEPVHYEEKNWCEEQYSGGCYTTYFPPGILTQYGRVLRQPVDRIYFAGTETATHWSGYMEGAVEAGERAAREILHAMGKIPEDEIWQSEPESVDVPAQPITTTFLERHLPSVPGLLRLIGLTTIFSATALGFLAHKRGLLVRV
protocol.description: Inhibition of human recombinant MAOB using kynuramine as substrate incubated for 10 mins by UPLC-ESI-MS/MS analysis
pIC50: −log10 of the molar value.
readout.name: pIC50

# compound.structure.string, pIC50
data = [
    ("Cc1cc(CO)c(O)c2c1C[C@@H](C)OC2=O", "< 4.30"),
    ("Cc1cc(-c2ccc(N)cc2)c(O)c2c1C[C@@H](C)OC2=O", 4.68),
    ("Cc1cc(-c2cccc([N+](=O)[O-])c2)c(O)c2c1C[C@@H](C)OC2=O", "< 4.30"),
]

Task: Look up and report measured pIC50 for this entry: `Cc1cc(C(=O)N2CCOCC2)c(O)c2c1C[C@@H](C)OC2=O`
Output: < 4.30

Task: Look up and report measured pIC50 for this entry: `COc1cccc2c1C(=O)O[C@H](C)C2`
Output: < 4.30

----------
system.tested: Amine oxidase [flavin-containing] A (Homo sapiens, UniProt P21397)
Sequence (P21397 whole entry): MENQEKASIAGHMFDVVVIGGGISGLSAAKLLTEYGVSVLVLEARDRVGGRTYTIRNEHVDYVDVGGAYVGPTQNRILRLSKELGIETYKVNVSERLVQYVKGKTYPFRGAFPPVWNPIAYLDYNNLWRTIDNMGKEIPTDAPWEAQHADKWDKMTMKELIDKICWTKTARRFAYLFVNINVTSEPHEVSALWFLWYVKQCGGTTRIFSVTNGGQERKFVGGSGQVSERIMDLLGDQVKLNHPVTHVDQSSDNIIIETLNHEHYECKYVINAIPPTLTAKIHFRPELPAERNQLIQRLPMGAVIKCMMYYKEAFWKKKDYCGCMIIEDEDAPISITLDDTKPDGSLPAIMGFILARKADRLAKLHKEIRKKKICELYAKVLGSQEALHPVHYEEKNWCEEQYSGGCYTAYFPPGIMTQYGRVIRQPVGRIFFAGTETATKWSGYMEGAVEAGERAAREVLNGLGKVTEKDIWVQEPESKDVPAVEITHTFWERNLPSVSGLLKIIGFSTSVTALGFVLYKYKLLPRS
protocol.description: Inhibition of human recombinant MAOA using kynuramine as substrate incubated for 10 mins by UPLC-ESI-MS/MS analysis
readout.name: IC50 (µM)

# compound.structure.string, system.tested, unit.descriptor, IC50
measured = [
    ("Cc1cc2cccc(O)c2c(=O)o1", "Amine oxidase [flavin-containing] A (Homo sapiens, UniProt P21397)", "µM", 23.4),
    ("C[C@@H]1Cc2c(O)ccc(O)c2C(=O)O1", "Amine oxidase [flavin-containing] A (Homo sapiens, UniProt P21397)", "µM", 17.1),
    ("Cc1cc(-c2ccc(C(F)(F)F)cc2)c(O)c2c1C[C@@H](C)OC2=O", "Amine oxidase [flavin-containing] A (Homo sapiens, UniProt P21397)", "µM", 13.7),
    ("Cc1cc(C)c2c(c1O)C(=O)O[C@H](C)C2", "Amine oxidase [flavin-containing] A (Homo sapiens, UniProt P21397)", "µM", 3.8),
]

(P) Cc1cc(Br)c(O)c2c1C[C@@H](C)OC2=O
(Q) Cc1ccc(O)c2c1CCOC2=O
(R) Cc1cc(-c2ccc(O)cc2)c(O)c2c1C[C@@H](C)OC2=O
(S) Cc1cc(-c2ccccn2)c(O)c2c1C[C@@H](C)OC2=O
Task: Arrange the 4 entries by IC50 so the values rise. // ordering of labels required in reply
Output: R, S, Q, P

----------
# Ratio IC50 per entry
Organism: Homo sapiens
protocol.description: Selectivity index, ratio of IC50 for human recombinant MAOB to IC50 for human recombinant MAOA

Guide cases for Ratio IC50, answers given:
# molecule, reading
data = [
    ("Cc1ccc(O)c2c1C[C@@H](C)OC2=O", 8.3),
    ("Cc1cc(N(C)C)c(O)c2c1C[C@@H](C)OC2=O", "> 3.6"),
    ("COc1ccc(NCc2cc(C)c3c(c2O)C(=O)O[C@H](C)C3)cc1", "> 11"),
    ("Cc1cc(I)c(O)c2c1C[C@@H](C)OC2=O", "> 3.1"),
    ("Cc1cc(CO)c(O)c2c1C[C@@H](C)OC2=O", "> 2.6"),
]

Task: Look up and report measured Ratio IC50 for this entry: `Cc1ccc(O)c2c1CCOC2=O`
Output: 1.7

Task: Look up and report measured Ratio IC50 for this entry: `CC[C@@H]1Cc2c(C)cc(-c3ccc(N)cc3)c(O)c2C(=O)O1`
Output: > 167

Task: Look up and report measured Ratio IC50 for this entry: `Cc1cc(-c2cccnc2)c(O)c2c1C[C@@H](C)OC2=O`
Output: > 250

Task: Look up and report measured Ratio IC50 for this entry: `Cc1cc(-c2ccc(O)cc2)c(O)c2c1C[C@@H](C)OC2=O`
Output: 38

Task: Look up and report measured Ratio IC50 for this entry: `Cc1cc(-c2ccc(C(F)(F)F)cc2)c(O)c2c1C[C@@H](C)OC2=O`
Output: 0.1

Task: Look up and report measured Ratio IC50 for this entry: `CCCc1cc(C)c2c(c1O)C(=O)O[C@H](C)C2`
Output: > 11

Task: Look up and report measured Ratio IC50 for this entry: `Cc1cc(-c2cccc([N+](=O)[O-])c2)c(O)c2c1C[C@@H](C)OC2=O`
Output: > 17

Task: Look up and report measured Ratio IC50 for this entry: `Cc1cc(-c2ccncc2)c(O)c2c1C[C@@H](C)OC2=O`
Output: > 18

Task: Look up and report measured Ratio IC50 for this entry: `Cc1ccc(-c2cc(C)c3c(c2O)C(=O)O[C@H](C)C3)cc1`
Output: 0.3

Task: Look up and report measured Ratio IC50 for this entry: `Cc1cc(Br)c(O)c2c1C[C@@H](C)OC2=O`
Output: > 1.7

Task: Look up and report measured Ratio IC50 for this entry: `CCc1ccc(O)c2c1C[C@@H](C)OC2=O`
Output: < 0.3

Task: Look up and report measured Ratio IC50 for this entry: `C[C@@H]1Cc2c(O)ccc(O)c2C(=O)O1`
Output: > 2.9

Task: Look up and report measured Ratio IC50 for this entry: `CCc1cc(C)c2c(c1O)C(=O)O[C@H](C)C2`
Output: > 17

Task: Look up and report measured Ratio IC50 for this entry: `Cc1ccc(O)c2c1C[C@H](C)OC2=O`
Output: 10

Just for reference, ChEMBL document CHEMBL4392854 is where these values come from.
